Quick note: these are IC50 numbers for system: hPASK (Homo sapiens, UniProt Q96RG2)
Sequence (Q96RG2 999-1251 limits assumed): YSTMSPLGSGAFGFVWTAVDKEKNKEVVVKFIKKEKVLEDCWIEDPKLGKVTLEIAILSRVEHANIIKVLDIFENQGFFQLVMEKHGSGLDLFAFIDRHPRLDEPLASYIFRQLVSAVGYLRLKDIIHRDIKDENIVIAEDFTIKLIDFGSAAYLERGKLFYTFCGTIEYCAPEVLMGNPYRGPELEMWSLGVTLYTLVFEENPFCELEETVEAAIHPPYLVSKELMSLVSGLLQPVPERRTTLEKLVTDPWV

{"SMILES REPRESENTATION": "O=C(O)c1ccc2nc(-c3ccc(F)cc3)c(N3CCCc4ccccc43)nc2c1", "OBSERVABLE": "IC50", "RESULT": "≤ 10 µM"}
{"SMILES REPRESENTATION": "O=C(O)c1ccc2nc(-c3ccc4[nH]ncc4c3)c(N3CCCc4cc(F)ccc43)nc2c1", "OBSERVABLE": "IC50", "RESULT": "≤ 10 µM"}
{"SMILES REPRESENTATION": "COc1ccc2c(c1)CCCN2c1nc2cc(C(=O)O)ccc2nc1-c1cc2cc(Cl)ccc2o1", "OBSERVABLE": "IC50", "RESULT": "≤ 10 µM"}

I looked up O=C(O)c1ccc2nc(-c3ccc(F)cc3)c(N3CCCc4c(F)cccc43)nc2c1 and its IC50 for hPASK (Homo sapiens, UniProt Q96RG2) was ≤ 10 µM
